- protocol notes: Clearance in Sprague-Dawley rat at 1 mg/kg, iv by LC-tandem mass spectrometry analysis
- Assay type: ADME, organism-based
- test parameters: in vivo
property label: clearance
// unit must come after the numeric part

QUERY: Return the recorded clearance value; entry: O=C(Nc1cccc(Br)c1)Nc1cc(Oc2ccc3nc(NC(=O)C4CC4)sc3c2)ccc1F
RESULT: 2.6 mL/min/kg

---

- Organism: Homo sapiens
- protocol notes: Selectivity ratio of Kd for human partial length RIPK1 (M1 to K305 residues) expressed in bacterial expression system to Kd for wild-type human partial length RIPK3 (M1 to Q307 residues) expressed in bacterial expression system
Reported Ratio values for the following compounds.
Enter a number only.

Below, 2 compounds whose answers are already recorded.
{"molecule": "COc1cccc(NC(=O)Nc2cc(Oc3ccc4nc(NC(=O)C5CC5)sc4c3)ccc2F)c1", "measurement": 52.1}
{"molecule": "Cc1cccc(NC(=O)Nc2cc(Oc3ccc4nc(NC(=O)C5CC5)sc4c3)ccc2F)c1", "measurement": 23.6}

# context switch: different compound, same Ratio
QUERY: Return the recorded Ratio value; entry: O=C(Cc1ccc2c(c1)OCO2)Nc1cc(Oc2ccc3nc(NC(=O)C4CC4)sc3c2)ccc1F
RESULT: 13
